# Tested on: SiHa
# testDetails: Antitumor activity against human SiHa cells xenografted in immunocompromized mouse assessed as number of colony forming cells per gram of tumor tissue at 42 umol/kg, iv tumor excised post 18 hrs followed by culturing for 14 days
# Type: functional
measurementKind: log10cfu

Completed entries (count: 10):
- compound: "CN(C)CCOc1ccc2[nH]c(C(=O)N3CC(COS(=O)(=O)Cc4ccccc4)c4c3cc([N+](=O)[O-])c3cc(C(=O)NCCOP(=O)(O)O)ccc43)cc2c1 (stereo unspecified)"
  log10cfu: 6.92
- compound: "COc1cc2cc(C(=O)N3CC(COS(=O)(=O)Cc4ccccc4)c4c3cc([N+](=O)[O-])c3cc(C(=O)NCCOP(=O)(O)O)ccc43)[nH]c2c(OC)c1OC (stereo unspecified)"
  log10cfu: 6.71
- compound: "CN(C)CCOc1ccc2[nH]c(C(=O)N3CC(CCl)c4c3cc([N+](=O)[O-])c3cc(C(=O)NCCOP(=O)(O)O)ccc43)cc2c1 (stereo unspecified)"
  log10cfu: 6.56
- compound: "COc1cc2cc(C(=O)N3CC(COS(=O)(=O)Cc4ccccc4)c4c3cc([N+](=O)[O-])c3cc(S(=O)(=O)NCCOP(=O)(O)O)ccc43)[nH]c2c(OC)c1OC (stereo unspecified)"
  log10cfu: 6.53
- compound: "O=C(c1cc2cc(OCCN3CCOCC3)ccc2[nH]1)N1CC(COS(=O)(=O)Cc2ccccc2)c2c1cc([N+](=O)[O-])c1cc(S(=O)(=O)NCCOP(=O)(O)O)ccc21 (stereo unspecified)"
  log10cfu: 7.08
- compound: "COc1ccc(/C=C/C(=O)N2CC(COS(=O)(=O)Cc3ccccc3)c3c2cc([N+](=O)[O-])c2cc(S(=O)(=O)NCCOP(=O)(O)O)ccc32)cc1 (stereo unspecified)"
  log10cfu: 6.74
- compound: "COc1cc2cc(C(=O)N3CC(COS(C)(=O)=O)c4c3cc([N+](=O)[O-])c3cc(S(=O)(=O)NCCOP(=O)(O)O)ccc43)[nH]c2c(OC)c1OC (stereo unspecified)"
  log10cfu: 7.15
- compound: "CN(C)CCOc1ccc2[nH]c(C(=O)N3CC(COS(C)(=O)=O)c4c3cc([N+](=O)[O-])c3cc(S(=O)(=O)NCCOP(=O)(O)O)ccc43)cc2c1 (stereo unspecified)"
  log10cfu: 7.18
- compound: "NC(=O)c1ccc2c3c(cc([N+](=O)[O-])c2c1)N(C(=O)c1cc2cc(OCCOP(=O)(O)O)ccc2[nH]1)CC3COS(=O)(=O)Cc1ccccc1 (stereo unspecified)"
  log10cfu: 6.91
- compound: "COc1ccc(/C=C/C(=O)N2CC(COS(C)(=O)=O)c3c2cc([N+](=O)[O-])c2cc(S(=O)(=O)NCCOP(=O)(O)O)ccc32)cc1 (stereo unspecified)"
  log10cfu: 7.09

Next, consider the following compound.
# input compound: CN(C)CCOc1ccc2[nH]c(C(=O)N3CC(COS(=O)(=O)Cc4ccccc4)c4c3cc([N+](=O)[O-])c3cc(S(=O)(=O)NCCOP(=O)(O)O)ccc43)cc2c1 (stereo unspecified) ; wanted: its log10cfu 6.92

---

# Test system: HCT-116
# testDetails: Ratio of IC50 for human HCT116 cells under oxic condition to IC50 for human HCT116 cells under hypoxic condition
# Format: functional
# key: entry, value: Ratio IC50
Number only, no unit.

- compound: "COc1cc2cc(C(=O)N3CC(COS(=O)(=O)Cc4ccccc4)c4c3cc([N+](=O)[O-])c3cc(C(N)=O)ccc43)[nH]c2c(OC)c1OC (centres undefined)"
  Ratio IC50: 13

Value wanted: Ratio IC50 (HCT-116) of entry NC(=O)c1ccc2c3c(cc([N+](=O)[O-])c2c1)N(C(=O)c1cc2cc(OCCO)ccc2[nH]1)CC3COS(=O)(=O)Cc1ccccc1 (centres undefined) 127

Value wanted: Ratio IC50 (HCT-116) of entry COc1cc2cc(C(=O)N3CC(COS(=O)(=O)Cc4ccccc4)c4c3cc([N+](=O)[O-])c3cc(S(N)(=O)=O)ccc43)[nH]c2c(OC)c1OC (centres undefined) 193

Value wanted: Ratio IC50 (HCT-116) of entry COc1ccc(/C=C/C(=O)N2CC(COS(=O)(=O)Cc3ccccc3)c3c2cc([N+](=O)[O-])c2cc(C(N)=O)ccc32)cc1 (centres undefined) 403
